- Test system: cAMP-dependent protein kinase
- testDetails: Activation of cAMP-dependent protein kinase isolated from beef brain
- Assay type: biochemical, bovine
- assaySetup: ratio of Ka of cAMP to Ka of test compound; bovine brain cAMP-dependent kinase

| compound | Protein Kinase, Ka ' Bovine |
| --- | --- |
| CC(=NNC(=O)Nc1ccccc1)c1nc2c(=O)[nH]c(N)nc2n1[C@@H]1O[C@@H]2COP(=O)(O)O[C@H]2[C@H]1O [Compound 17] | < 0.01 |
| CC(=O)c1nc2c(=O)[nH]cnc2n1[C@@H]1O[C@@H]2COP(=O)(O)O[C@H]2[C@H]1O [Compound 20, 8-Acetylinosine 3',5'-Cyclic Phosphate] | 0.022 |
| CCCC(O)c1nc2c(=O)[nH]c(N)nc2n1[C@@H]1O[C@@H]2COP(=O)(O)O[C@H]2[C@H]1O (stereo partly drawn) [Compound 12] | < 0.001 |
| CC(C)c1nc2c(=O)[nH]c(N)nc2n1[C@@H]1O[C@@H]2COP(=O)(O)O[C@H]2[C@H]1O [Compound 3] | < 0.001 |
| Nc1nc2c(nc(C(O)c3ccccc3)n2[C@@H]2O[C@@H]3COP(=O)(O)O[C@H]3[C@H]2O)c(=O)[nH]1 (stereo partly drawn) [Compound 14] | < 0.005 |
| O=C(c1ccccc1)c1nc2c(=O)[nH]cnc2n1[C@@H]1O[C@@H]2COP(=O)(O)O[C@H]2[C@H]1O [Compound 21, 8-Benzoylinosine 3',5'-Cyclic Phosphate] | 0.070 |

###

Catalogue of compounds with associated pIC50
- assaySystem: cyclic nucleotide phosphodiesterase
- testDetails: Inhibition of cAMP hydrolysis by beef heart cyclic nucleotide phosphodiesterase
- Assay type: biochemical
- assaySetup: beef heart enzyme; 50% inhibition of cleavage of cAMP, cAMP = 1.6 × 10^-7 M; read-out: Phosphodiesterase Inhibition, I50 Heart
pIC50: −log10 of the molar value. Structures can show the parent of a compound that is named as a salt.
testReadout: pIC50

| compound | testReadout | valueComparator | recordedValue |
| --- | --- | --- | --- |
| Nc1nc2c(nc(C(O)c3ccccc3)n2[C@@H]2O[C@@H]3COP(=O)(O)O[C@H]3[C@H]2O)c(=O)[nH]1 (some centres unmarked) | pIC50 | < | 3.52 |
| CCCC(=O)c1nc2c(=O)[nH]c(N)nc2n1[C@@H]1O[C@@H]2COP(=O)(O)O[C@H]2[C@H]1O | pIC50 | = | 4.05 |
| Cn1c(=O)c2[nH]cnc2n(C)c1=O [theophylline, reference compound] | pIC50 | = | 4.00 |
| O=C(c1ccccc1)c1nc2c(=O)[nH]cnc2n1[C@@H]1O[C@@H]2COP(=O)(O)O[C@H]2[C@H]1O [Compound 21, 8-Benzoylinosine 3',5'-Cyclic Phosphate] | pIC50 | = | 4.15 |
| Nc1nc2c(nc(C(=O)c3ccccc3)n2[C@@H]2O[C@@H]3COP(=O)(O)O[C@H]3[C@H]2O)c(=O)[nH]1 | pIC50 | = | 4.30 |
| CC(=NNc1ccccc1)c1nc2c(=O)[nH]c(N)nc2n1[C@@H]1O[C@@H]2COP(=O)(O)O[C@H]2[C@H]1O | pIC50 | = | 4.00 |
| Cc1nc2c(=O)[nH]c(N)nc2n1[C@@H]1O[C@@H]2COP(=O)(O)O[C@H]2[C@H]1O [Compound 2, 8-Methylguanosine 3',5'-Cyclic Phosphate] | pIC50 | = | 3.70 |
| CC(C)C(=O)c1nc2c(=O)[nH]c(N)nc2n1[C@@H]1O[C@@H]2COP(=O)(O)O[C@H]2[C@H]1O [Compound 8, Phosphate Ammonium Salt] | pIC50 | = | 4.96 |

###

- assaySystem: cyclic nucleotide phosphodiesterase
- testDetails: Inhibition of cAMP hydrolysis by rabbit lung cyclic nucleotide phosphodiesterase
- Type: biochemical
- assaySetup: rabbit lung enzyme; 50% inhibition of cleavage of cAMP, cAMP = 1.6 × 10^-7 M; read-out: Phosphodiesterase Inhibition, I50 Lung
testReadout: IC50 (µM)

| compound | recordedValue |
| --- | --- |
| CC(=NNC(N)=S)c1nc2c(=O)[nH]c(N)nc2n1[C@@H]1O[C@@H]2COP(=O)(O)O[C@H]2[C@H]1O [Compound 15] | 26 |
| CC(C)c1nc2c(=O)[nH]c(N)nc2n1[C@@H]1O[C@@H]2COP(=O)(O)O[C@H]2[C@H]1O [Compound 3] | 330 |
| CC(=O)c1nc2c(=O)[nH]c(N)nc2n1[C@@H]1O[C@@H]2COP(=O)(O)O[C@H]2[C@H]1O [Compound 6] | 70 |
| O=C(c1ccccc1)c1nc2c(=O)[nH]cnc2n1[C@@H]1O[C@@H]2COP(=O)(O)O[C@H]2[C@H]1O [Compound 21, 8-Benzoylinosine 3',5'-Cyclic Phosphate] | 400 |
| Cc1nc2c(=O)[nH]c(N)nc2n1[C@@H]1O[C@@H]2COP(=O)(O)O[C@H]2[C@H]1O [Compound 2, 8-Methylguanosine 3',5'-Cyclic Phosphate] | 400 |
| Nc1nc2c(nc(Cc3ccccc3)n2[C@@H]2O[C@@H]3COP(=O)(O)O[C@H]3[C@H]2O)c(=O)[nH]1 [Compound 4, 8-Benzylguanosine 3',5'-Cyclic Phosphate] | 130 |
| CCCC(=O)c1nc2c(=O)[nH]c(N)nc2n1[C@@H]1O[C@@H]2COP(=O)(O)O[C@H]2[C@H]1O [Compound 7] | 70 |
| Cn1c(=O)c2[nH]cnc2n(C)c1=O [theophylline, reference compound] | 200 |
| CC(=O)c1nc2c(=O)[nH]cnc2n1[C@@H]1O[C@@H]2COP(=O)(O)O[C@H]2[C@H]1O [Compound 20, 8-Acetylinosine 3',5'-Cyclic Phosphate] | 2000 |
| CC(C)(C)Cc1nc2c(=O)[nH]c(N)nc2n1[C@@H]1O[C@@H]2COP(=O)(O)O[C@H]2[C@H]1O [Compound 5] | 70 |
| Nc1nc2c(nc(C(O)c3ccccc3)n2[C@@H]2O[C@@H]3COP(=O)(O)O[C@H]3[C@H]2O)c(=O)[nH]1 (stereo partly shown) [Compound 14] | 140 |
| CC(O)c1nc2c(=O)[nH]c(N)nc2n1[C@@H]1O[C@@H]2COP(=O)(O)O[C@H]2[C@H]1O (stereo partly shown) [Compound 11] | 400 |
| NC(=O)c1nc2c(=O)[nH]c(N)nc2n1[C@@H]1O[C@@H]2COP(=O)(O)O[C@H]2[C@H]1O [Compound 10] | 400 |

###

- Test system: cAMP-dependent protein kinase
- testDetails: Activation of cAMP-dependent protein kinase isolated from beef brain
- Format: biochemical, bovine
- assaySetup: ratio of Ka of cAMP to Ka of test compound; bovine brain cAMP-dependent kinase
Structures can show the parent of a compound that is named as a salt.
Catalogue of molecules with associated Protein Kinase, Ka ' Bovine
testReadout: Protein Kinase, Ka ' Bovine

| molecule | assaySystem | recordedValue |
| --- | --- | --- |
| Nc1nc2c(ncn2[C@@H]2O[C@@H]3COP(=O)(O)O[C@H]3[C@H]2O)c(=O)[nH]1 [Compound 1, guanosine 3',5'-cyclic phosphate, reference compound] | cAMP-dependent protein kinase | 0.023 |
| CC(=NNC(N)=O)c1nc2c(=O)[nH]c(N)nc2n1[C@@H]1O[C@@H]2COP(=O)(O)O[C@H]2[C@H]1O | cAMP-dependent protein kinase | < 0.005 |
| CCCC(=O)c1nc2c(=O)[nH]c(N)nc2n1[C@@H]1O[C@@H]2COP(=O)(O)O[C@H]2[C@H]1O | cAMP-dependent protein kinase | 0.064 |
| Nc1nc2c(nc(Cc3ccccc3)n2[C@@H]2O[C@@H]3COP(=O)(O)O[C@H]3[C@H]2O)c(=O)[nH]1 [Compound 4, 8-Benzylguanosine 3',5'-Cyclic Phosphate] | cAMP-dependent protein kinase | < 0.001 |
| NC(=O)c1nc2c(=O)[nH]c(N)nc2n1[C@@H]1O[C@@H]2COP(=O)(O)O[C@H]2[C@H]1O | cAMP-dependent protein kinase | < 0.001 |
| CC(C)C(=O)c1nc2c(=O)[nH]c(N)nc2n1[C@@H]1O[C@@H]2COP(=O)(O)O[C@H]2[C@H]1O [Compound 8, Phosphate Ammonium Salt] | cAMP-dependent protein kinase | < 0.01 |

###

- System: cGMP-dependent protein kinase
- testDetails: Activation of cGMP-dependent protein kinase isolated from lobster tail
- Type: biochemical
- assaySetup: ratio of Ka of cGMP to Ka of test compound; lobster tail cGMP-dependent kinase

| molecule | Protein Kinase, Ka ' Lobster |
| --- | --- |
| CCCC(=O)c1nc2c(=O)[nH]c(N)nc2n1[C@@H]1O[C@@H]2COP(=O)(O)O[C@H]2[C@H]1O | 0.20 |
| Nc1nc2c(nc(Cc3ccccc3)n2[C@@H]2O[C@@H]3COP(=O)(O)O[C@H]3[C@H]2O)c(=O)[nH]1 [Compound 4, 8-Benzylguanosine 3',5'-Cyclic Phosphate] | 0.10 |
| CC(C)c1nc2c(=O)[nH]c(N)nc2n1[C@@H]1O[C@@H]2COP(=O)(O)O[C@H]2[C@H]1O | 0.70 |
